Attribution: IntAct's records for PubMed 29039417

B1: BBSome-interacting protein 1 (Homo sapiens), A8MTZ0 (parent)
chain: MLKAAAKRPELSGKNTISNNSDMAEVKSMFREVLPKQGPLFVEDIMTMVLCKPKLLPLKSLTLEKLEKMHQAAQNTIRQQEMAEKDQRQITH
partner: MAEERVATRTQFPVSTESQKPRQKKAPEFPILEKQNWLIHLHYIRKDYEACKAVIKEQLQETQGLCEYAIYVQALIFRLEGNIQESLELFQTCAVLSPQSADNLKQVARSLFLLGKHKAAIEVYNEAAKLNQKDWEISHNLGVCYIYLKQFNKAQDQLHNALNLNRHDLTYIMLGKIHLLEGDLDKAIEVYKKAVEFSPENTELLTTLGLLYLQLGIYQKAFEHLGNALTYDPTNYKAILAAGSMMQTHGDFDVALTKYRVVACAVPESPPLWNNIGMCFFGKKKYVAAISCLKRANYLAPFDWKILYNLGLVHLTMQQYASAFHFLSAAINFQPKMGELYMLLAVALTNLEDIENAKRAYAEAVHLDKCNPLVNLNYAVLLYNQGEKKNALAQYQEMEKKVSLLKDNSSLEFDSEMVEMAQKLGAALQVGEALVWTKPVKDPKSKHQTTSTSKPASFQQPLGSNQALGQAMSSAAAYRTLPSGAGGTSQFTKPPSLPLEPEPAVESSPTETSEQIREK

- Variants of: B1
- REPORTED_CONDITIONS: with bbs4_human BBS4, Q96RK4

# VARIANT_KEY, effect of a mutation on the interaction
rows = [
    ("P53A", "with no effect"),
    ("K85E", "with no effect"),
    ("M48E", "with no effect"),
    ("L61A", "with no effect"),
    ("T62A", "with no effect"),
    ("L58E", "with no effect"),
    ("E64A", "with no effect"),
    ("Q80A", "with no effect"),
    ("V42K", "with no effect"),
    ("L40K", "with no effect"),
    ("R78E", "with no effect"),
    ("N20K", "with no effect"),
    ("E10K", "with no effect"),
    ("L11A", "with no effect"),
    ("L66K", "with no effect"),
    ("Q74E", "with no effect"),
    ("L56E", "with no effect"),
    ("I90E", "with no effect"),
    ("D86A", "with no effect"),
    ("M23A", "with no effect"),
    ("Q74K", "with no effect"),
    ("N15E", "with no effect"),
    ("P9K", "with no effect"),
    ("M82K", "with no effect"),
    ("D86E", "with no effect"),
    ("F30K", "with no effect"),
    ("L61K", "with no effect"),
    ("D44K", "with no effect"),
    ("R31E", "with no effect"),
    ("T62E", "with no effect"),
    ("L55K", "with no effect"),
    ("I77K", "with no effect"),
    ("T16E", "with no effect"),
    ("E43A", "with no effect"),
    ("H70E", "with no effect"),
    ("M29K", "with no effect"),
    ("M23E", "with no effect"),
    ("M29E", "with no effect"),
]
